So I've got a bunch of compounds here, and I need their LC50 values.
System: CAKI-1
Assay: NCI human tumor cell panel
Format: cell-based
Details: CAKI-1, read-out: Log10 LC50 (converted)
Give bare numbers, in µM.

Below, each entry is followed by its recorded LC50 result.
[
  {
    "chemical.structure": "OCc1ccc(-c2ccc(-c3ccc[se]3)s2)[se]1",
    "quantity.unit": "µM",
    "recorded.measurement": 64.6
  },
  {
    "chemical.structure": "O=Cc1ccc(-c2ccc(-c3ccc(C=O)[se]3)s2)s1",
    "quantity.unit": "µM",
    "recorded.measurement": 29.5
  },
  {
    "chemical.structure": "O=Cc1ccc(-c2ccc(-c3ccc[se]3)[se]2)[se]1",
    "quantity.unit": "µM",
    "recorded.measurement": 14.5
  },
  {
    "chemical.structure": "OCc1ccc(-c2ccc(-c3ccc(CO)[se]3)[se]2)[se]1",
    "quantity.unit": "µM",
    "recorded.measurement": 13.2
  }
]

# next compound below
# lookup: LC50 of OCc1ccc(-c2ccc(-c3ccc[se]3)[se]2)[se]1
51.3
